// provenance: patent US8178506B2

System: PPARγ
Experiment: PPARγ mRNA expression in adipocytes (real-time PCR)
Type: cell-based, human
Details: differentiating adipocytes transfected with oligomeric compound; Table 75
In the oligonucleotide strings, read from the 5' end, every base follows the letter of its sugar. An asterisk marks phosphorothioate; unmarked linkages are phosphodiester. Other units and linkages are bracketed, terminal groups are in braces. A string of capitals states the bases alone. e = 2'-O-(2-methoxyethyl) (MOE); [5mC] = 5-methylcytosine
Examples of substances with documented PPAR gamma mRNA follow.

>  <Substance>
327946 (antisense eA*eG*eG*e[5mC]*eG*eA*eA*eG*eG*eA*eT*eG*eA*e[5mC]*eA*eA*eA*eG*eG*eG*eA*eA) [compound 327946]

>  <PPAR gamma mRNA>
81 percentage of untreated control (UTC)

$$$$
>  <Substance>
346921 (AACAACCAGCUAAGACACUGCCA; all 2'-MOE, all phosphorothioate, methylation of C and T or U not given here) [compound 346921]

>  <PPAR gamma mRNA>
62 percentage of untreated control (UTC)

$$$$
>  <Substance>
346909 (UCACCAAAACAUGGAAGCACUUA; all 2'-MOE, all phosphorothioate, methylation of C and T or U not given here) [compound 346909]

>  <PPAR gamma mRNA>
77 percentage of untreated control (UTC)

$$$$
>  <Substance>
328104 (antisense eT*eA*eT*eG*eA*eT*eA*eG*e[5mC]*eT*eT*e[5mC]*e[5mC]*e[5mC]*e[5mC]*eA*eT*eG*eT*eA*eA) [compound 328104]

>  <PPAR gamma mRNA>
73 percentage of untreated control (UTC)

$$$$
>  <Substance>
327935 (antisense e[5mC]*eT*eA*e[5mC]*e[5mC]*eT*eG*e[5mC]*eA*e[5mC]*eT*eA*eT*eA*eA*eG*e[5mC]*eA*e[5mC]*eT*eT*eT*eA) [compound 327935]

>  <PPAR gamma mRNA>
67 percentage of untreated control (UTC)

$$$$
>  <Substance>
327921 (antisense e[5mC]*eT*eT*e[5mC]*e[5mC]*eA*eG*eT*e[5mC]*eG*eG*eG*eG*eA*eT*eG*eT*eT*eT*eA*e[5mC]*eA) [compound 327921]

>  <PPAR gamma mRNA>
75 percentage of untreated control (UTC)

$$$$
>  <Substance>
327952 (antisense e[5mC]*eT*eA*e[5mC]*eG*e[5mC]*eG*eT*eA*eT*eT*e[5mC]*eT*eT*eA*eA*eG*e[5mC]*eA*eA*eT*eA) [compound 327952]

>  <PPAR gamma mRNA>
84 percentage of untreated control (UTC)

$$$$
>  <Substance>
346920 (AGCAAAAAUGUGCUAGUGCCAAA; all 2'-MOE, all phosphorothioate, methylation of C and T or U not given here) [compound 346920]

>  <PPAR gamma mRNA>
70 percentage of untreated control (UTC)

$$$$
>  <Substance>
348124 (CACAAAUUCGGUUCUACAGGGUA; anti-miR; all 2'-MOE, all phosphorothioate, methylation of C and T or U not given here) [compound 348124]

>  <PPAR gamma mRNA>
63 percentage of untreated control (UTC)

$$$$
>  <Substance>
327966 (antisense eA*eT*e[5mC]*e[5mC]*eA*eA*eT*e[5mC]*eA*eG*eT*eT*e[5mC]*e[5mC]*eT*eG*eA*eT*eG*e[5mC]*eA*eG*eT*eA) [compound 327966]

>  <PPAR gamma mRNA>
77 percentage of untreated control (UTC)

$$$$
>  <Substance>
346908 (GCUUUGACAAUACUAUUGCACUG; all 2'-MOE, all phosphorothioate, methylation of C and T or U not given here) [compound 346908]

>  <PPAR gamma mRNA>
77 percentage of untreated control (UTC)

$$$$
>  <Substance>
327959 (antisense e[5mC]*eA*eG*e[5mC]*e[5mC]*eG*e[5mC]*eT*eG*eT*e[5mC]*eA*e[5mC]*eA*e[5mC]*eG*e[5mC]*eA*e[5mC]*eA*eG) [compound 327959]

>  <PPAR gamma mRNA>
65 percentage of untreated control (UTC)

$$$$
>  <Substance>
327923 (antisense eG*eA*eA*eA*eG*eA*eG*eA*e[5mC]*e[5mC]*eG*eG*eT*eT*e[5mC]*eA*e[5mC]*eT*eG*eT*eG*eA) [compound 327923]

>  <PPAR gamma mRNA>
77 percentage of untreated control (UTC)

$$$$
>  <Substance>
327920 (antisense eG*eA*eG*eA*e[5mC]*e[5mC]*e[5mC]*eA*eG*eT*eA*eG*e[5mC]*e[5mC]*eA*eG*eA*eT*eG*eT*eA*eG*e[5mC]*eT) [compound 327920]

>  <PPAR gamma mRNA>
34 percentage of untreated control (UTC)

$$$$
>  <Substance>
348125 (GCUGGAUGCAAACCUGCAAAACU; anti-miR; all 2'-MOE, all phosphorothioate, methylation of C and T or U not given here) [compound 348125]

>  <PPAR gamma mRNA>
64 percentage of untreated control (UTC)

$$$$
>  <Substance>
348116 (UUCGCCCUCUCAACCCAGCUUUU; anti-miR; all 2'-MOE, all phosphorothioate, methylation of C and T or U not given here) [compound 348116]

>  <PPAR gamma mRNA>
76 percentage of untreated control (UTC)

$$$$
>  <Substance>
328094 (antisense eT*eT*eG*eT*eA*eA*eG*e[5mC]*eA*eG*eT*eT*eT*eT*eG*eT*eT*eG*eA*e[5mC]*eA) [compound 328094]

>  <PPAR gamma mRNA>
94 percentage of untreated control (UTC)

$$$$
>  <Substance>
346687 (AGCAAGCCCAGACCGCAAAAAG; all 2'-MOE, all phosphorothioate, methylation of C not given here) [compound 346687]

>  <PPAR gamma mRNA>
60 percentage of untreated control (UTC)

$$$$
>  <Substance>
346914 (AUCUGCACUGUCAGCACUUUA; all 2'-MOE, all phosphorothioate, methylation of C and T or U not given here) [compound 346914]

>  <PPAR gamma mRNA>
41 percentage of untreated control (UTC)

$$$$
